Ref: patent US8071613B2

content of compound, 14 days: recorded values
ASSAY: Storage stability at 40° C. without solvent (crystal), content by HPLC
Assay type: physicochemical
DETAILS: crystal (no solvent), stored at 40° C., 14 days

The value of content of compound, 14 days measured for the molecule CCCCC(F)(F)C1(O)CC[C@@H]2C(CCCCCCC(=O)O)C(=O)C[C@H]2O1 (some centres unmarked) turned out to be 94.1%

The value of content of compound, 14 days measured for the molecule CC[C@H](C)CC(F)(F)C1(O)CC[C@@H]2C(CCCCCCC(=O)O)C(=O)C[C@H]2O1 (some centres unmarked) turned out to be 75%

----------
ASSAY: Storage stability at 40° C. without solvent (crystal), content by HPLC
Format: physicochemical
DETAILS: crystal (no solvent), stored at 40° C., 6 days
QUANTITY MEASURED: content of compound, 6 days (%)
The reply should contain only the number, in %.

The value of content of compound, 6 days measured for the compound CC[C@H](C)CC(F)(F)C1(O)CC[C@@H]2C(CCCCCCC(=O)O)C(=O)C[C@H]2O1 (stereo partly shown) turned out to be 84.5
